# System: CCRF S-180
# experimental details: Antitumor activity against mouse S180 cells xenografted in rat
# Format: functional
Reported values of Activity for individual entries
Only the number, expressed in %, is required.

Examples from the recorded data:
* CC1(C)CC(CCC(=O)ONP(=O)(N2CC2)N2CC2)CC(C)(C)N1O | 93
* CC1(C)CC(C(=O)ONP(=O)(N2CC2(C)C)N2CC2(C)C)CC(C)(C)N1O (centres undefined) | 93
* CC1(C)CC(C(=O)ONP(=O)(N2CC2)N2CC2)CC(C)(C)N1O | 93

Enquiry: Request body: readout Activity, system CCRF S-180, query CC1(C)CC(CCC(=O)ONP(=O)(N2CC2(C)C)N2CC2(C)C)CC(C)(C)N1O (centres undefined) . Return the value.
Return: 93

----------
# Tested on: CCRF S-180
# experimental details: Antitumor activity against mouse S180 cells implanted in ip dosed ddY mouse assessed as tumor volume after 7 days
# Type: functional
measure: ED50 (µg/mL)
Only the number, expressed in µg/mL, is required.

Examples from the recorded data:
• CO[C@@]12[C@H](COC(N)=O)C3=C(C(=O)C(C)=C(N)C3=O)N1C[C@@H]1N[C@@H]12 [MITOMYCIN] = 4.4
• C=C1C2=C(C(=O)C(C)=C(OC)C2=O)N2C[C@H]3[C@H](N3C)[C@]12OC (some centres undefined) [MITOMYCIN G] = 100
• C=C1C2=C(C(=O)C(C)=C(N)C2=O)N2C[C@H]3[C@H](N3C)[C@]12O (some centres undefined) [MITOMYCIN Z] = 82

Now consider a different molecule.
Enquiry: Request body: readout ED50, system CCRF S-180, query CO[C@@]12[C@H](COC(N)=O)C3=C(C(=O)C(C)=C(N)C3=O)N1C[C@H]1[C@@H]2N1C (some centres undefined) [PORFIROMYCIN] . Return the value.
Return: 22

----------
# target or system: Fumarate hydratase, mitochondrial (Sus scrofa, UniProt P10173)
# Sequence (P10173 whole entry): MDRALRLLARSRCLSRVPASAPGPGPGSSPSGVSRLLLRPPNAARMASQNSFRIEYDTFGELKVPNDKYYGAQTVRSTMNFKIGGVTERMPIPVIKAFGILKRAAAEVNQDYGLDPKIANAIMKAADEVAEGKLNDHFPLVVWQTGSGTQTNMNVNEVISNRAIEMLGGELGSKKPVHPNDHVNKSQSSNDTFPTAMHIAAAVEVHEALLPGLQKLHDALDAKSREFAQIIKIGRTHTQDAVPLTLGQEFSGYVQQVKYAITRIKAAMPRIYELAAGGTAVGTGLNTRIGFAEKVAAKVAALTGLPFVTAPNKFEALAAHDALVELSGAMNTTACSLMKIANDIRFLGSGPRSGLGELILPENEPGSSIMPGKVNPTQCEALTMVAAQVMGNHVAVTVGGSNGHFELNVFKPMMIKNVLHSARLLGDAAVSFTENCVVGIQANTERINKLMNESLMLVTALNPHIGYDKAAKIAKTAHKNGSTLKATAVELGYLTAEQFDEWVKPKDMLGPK
measure: Ki (nM)
Only the number, expressed in nM, is required.

Enquiry: Request body: readout Ki, system Fumarate hydratase, mitochondrial (Sus scrofa, UniProt P10173), query `O=C(O)[C@H]1N[C@@H]1C(=O)O` . Return the value.
Return: 80

----------
# System: L1210
# experimental details: Cytotoxicity against mouse L1210 cells
# Format: functional, cell-based
measure: IC50
Hi, when you answer, please include the unit after the number. Thanks!

* NCCCCNCCCN1CC1 | 150 nM

Now consider a different molecule.
Enquiry: I am curious: what IC50 value has been reported for `NCCCNCCCCN1CC1` ?
Return: 310 nM
